Assay: protein stability index of a GFP-peptide fusion (yeast GPS) (PSI 1-4); higher = more stable; sorted into four equal gates, so the index is relative within each strain
Details: san1∆
Entry flag: true (1) if protein stability index reaches 2; false (0) if it does not.

- SEQUENCE_DATA: "VHESLVTQSNILSQQFD [SRB8]"
  CLASS_LABEL: "true (1)"
- SEQUENCE_DATA: "ILKDLIYRGVLNDENSD [SMC1]"
  CLASS_LABEL: "false (0)"
- SEQUENCE_DATA: "NYGSSLQWHAMIELICS [AAR2]"
  CLASS_LABEL: "false (0)"
- SEQUENCE_DATA: "DKLSGCYAPRPSAGPHK [RPS4A]"
  CLASS_LABEL: "false (0)"
- SEQUENCE_DATA: "PVQSKFGRKKRKGGPAT [RPT2]"
  CLASS_LABEL: "true (1)"
- SEQUENCE_DATA: "ISIYNMLPPKSVKFTHI [SSN2]"
  CLASS_LABEL: "true (1)"

Q: API: above_or_equal(metric=protein stability index, cutoff=2) for item SSFKKNLLKFITSNHKS [RPN3]
Ans: false (0)

Q: Another sequence to look at: HIPRLIPKQLLDDEKIF [YJL039C/NUP192]
Ans: false (0)

Q: Another sequence to look at: GRDAFHLRVRVHPFHVL [RPL10]
Ans: false (0)

Q: Another sequence to look at: KQHAVLMLGSVNLPGGI [RRP4]
Ans: false (0)

Q: Another sequence to look at: PNHIPSVNPSNKPIKRM [SWP82]
Ans: true (1)

Q: Another sequence to look at: DTSNWELSDSWRAHDSS [YGL100W/SEH1]
Ans: true (1)

Q: Another sequence to look at: LIAVYYSFGGLLMRLEG [RPB8]
Ans: true (1)

* * *

Test: protein stability index of a GFP-peptide fusion (yeast GPS) (PSI 1-4); higher = more stable; sorted into four equal gates, so the index is relative within each strain
Settings: ubr1∆
Entries annotated with measured protein stability index

Here is how some sequences turned out for protein stability index.
- SEQUENCE_DATA: "EVYMRYRNFMVNSYRLN [SWI3]"
  protein stability index: 1.44
- SEQUENCE_DATA: "NKLLGNVTIAQGGVLPN [HTA1]"
  protein stability index: 1.61
- SEQUENCE_DATA: "KIMNVTTDSLTKVLQAD [YMR129W/POM152]"
  protein stability index: 3.23
- SEQUENCE_DATA: "LTKYIRSKNLIFNGETL [GRR1]"
  protein stability index: 1.91

Q: // query protein stability index value for entry DYVTNPDTKISSAAILG [RPN1]
Ans: 1.91

Q: Another sequence to look at: TKIIMATNRPDTLDPAL [RPT4]
Ans: 3.12

* * *

Test: protein stability index of a GFP-peptide fusion (yeast GPS) (PSI 1-4); higher = more stable; sorted into four equal gates, so the index is relative within each strain
Conditions: doa10∆
Entry flag: Criterion met if protein stability index reaches 2; Criterion not met if it does not.

- SEQUENCE_DATA: "SKLMPVLKSSVYEYVIA [RPC82]"
  CLASS_LABEL: "Criterion not met"
- SEQUENCE_DATA: "LDSLMKTTRLLLIIRSL [YJL039C/NUP192]"
  CLASS_LABEL: "Criterion not met"
- SEQUENCE_DATA: "LVEPSKVGQFDQVLNLC [FAS1]"
  CLASS_LABEL: "Criterion met"
- SEQUENCE_DATA: "TNLISKISLLRPSFQNN [SWP82]"
  CLASS_LABEL: "Criterion met"
- SEQUENCE_DATA: "LVDVMTTQGGLTSVTRH [RPO21]"
  CLASS_LABEL: "Criterion met"

Q: API: above_or_equal(metric=protein stability index, cutoff=2) for item LLQGGAKVVVTTSRFSK [FAS2]
Ans: Criterion met

Q: Another sequence to look at: FEIIDEASKKSAVKPRP [FAS1]
Ans: Criterion met

* * *

Entries annotated with measured protein stability index
Test: protein stability index of a GFP-peptide fusion (yeast GPS) (PSI 1-4); higher = more stable; sorted into four equal gates, so the index is relative within each strain
Details: doa10∆
Returns: the value as a bare number; no unit string appended.

Here is how some sequences turned out for protein stability index.
- SEQUENCE_DATA: "TKGDSTPVQPDLSVTPQ [YAR002W/NUP60]"
  PROPERTY_LABEL: "protein stability index"
  ASSAY_VALUE: 3.22
- SEQUENCE_DATA: "LIIVTRKNYMHVKNFGF [YML031W/NDC1]"
  PROPERTY_LABEL: "protein stability index"
  ASSAY_VALUE: 1.22
- SEQUENCE_DATA: "CEKWAASSWAKKIAQRE [RPL14A]"
  PROPERTY_LABEL: "protein stability index"
  ASSAY_VALUE: 2.35
- SEQUENCE_DATA: "DTKPFLNKDSTNEFVGS [NUT1]"
  PROPERTY_LABEL: "protein stability index"
  ASSAY_VALUE: 3.09

Q: // query protein stability index value for entry DFITGSYLISHKDSFYD [RPO31]
Ans: 2.02

Q: Another sequence to look at: TKEELESDGRMFIEEPT [SRP54]
Ans: 2.58

Q: Another sequence to look at: NIDYQKGLLIWRLLFID [GRR1]
Ans: 1.9

* * *

Entries annotated with measured protein stability index
Test: protein stability index of a GFP-peptide fusion (yeast GPS) (PSI 1-4); higher = more stable; sorted into four equal gates, so the index is relative within each strain
Conditions: san1∆
Returns: the value as a bare number; no unit string appended.

Here is how some sequences turned out for protein stability index.
- SEQUENCE_DATA: "LYTLAQETEGTNRHTLA [SIR3]"
  protein stability index: 2.2
- SEQUENCE_DATA: "HQGTPLGSHSSSQKDGN [REC8]"
  protein stability index: 2.88
- SEQUENCE_DATA: "TLVNKSTGLKSASDALK [RPS1A]"
  protein stability index: 3.42

Q: // query protein stability index value for entry KPLADLRPLFTRYELYI [YLR335W/NUP2]
Ans: 2.09

Q: Another sequence to look at: SKIFRFQNSKSASLFKQ [RPL24A]
Ans: 2.54

Q: Another sequence to look at: HICGICGLMTVIAKLNH [RPB2]
Ans: 1.23

Q: Another sequence to look at: TLGVVGKSEKLSLLLVE [SKI6]
Ans: 3.11

* * *

Assay: protein stability index of a GFP-peptide fusion (yeast GPS) (PSI 1-4); higher = more stable; sorted into four equal gates, so the index is relative within each strain
Conditions: doa10∆
Entries annotated with measured protein stability index
Returns: the value as a bare number; no unit string appended.

- SEQUENCE_DATA: "GGKSVGFGLVYNSVAEA [RPS24A]"
  protein stability index: 3.11
- SEQUENCE_DATA: "DEELVSHFVSAVSTIAS [RPP0]"
  protein stability index: 3.73

Q: // query protein stability index value for entry VSLQNFSSSVSLSYMAF [RRP40]
Ans: 2.22

Q: Another sequence to look at: KFNNGVVIAADTRSTQG [PUP1]
Ans: 1.6

Q: Another sequence to look at: SQFINDHILFTKTFIFI [SRB8]
Ans: 1.56

Q: Another sequence to look at: EIENLDKELRKTKFQYK [YIL149C/MLP2]
Ans: 2.73

Q: Another sequence to look at: MVLVQDLLHPTAASEAR [RPS27A]
Ans: 2.45

Q: Another sequence to look at: EQLSEEDAKLKTDLELL [RPN1]
Ans: 3.13

Q: Another sequence to look at: LKWIDTASKFGKGRFQT [RPL3]
Ans: 3.34

Q: Another sequence to look at: APGKVELAINLIRFDES [SMC2]
Ans: 3.12

Q: Another sequence to look at: TRKAVRPQKLRASLVPG [RPL6B]
Ans: 2.26

Q: Another sequence to look at: IRRLRVLRRLLAKYRDA [RPL19A]
Ans: 1.19

Q: Another sequence to look at: PDNSIFGDTKSESKQLG [SWI3]
Ans: 3.54

Q: Another sequence to look at: VDLWSVGCIFAELIGLQ [SSN3]
Ans: 3.18

* * *

Entries annotated with measured protein stability index
Experiment: protein stability index of a GFP-peptide fusion (yeast GPS) (PSI 1-4); higher = more stable; sorted into four equal gates, so the index is relative within each strain
Details: ubr1∆
Returns: the value as a bare number; no unit string appended.

Here is how some sequences turned out for protein stability index.
- SEQUENCE_DATA: "AQSRNVEIEKRILKLGT [YGR119C/NUP57]"
  PROPERTY_LABEL: "protein stability index"
  ASSAY_VALUE: 3.34
- SEQUENCE_DATA: "LALENGEITKTENEKFI [NUT1]"
  PROPERTY_LABEL: "protein stability index"
  ASSAY_VALUE: 3.3
- SEQUENCE_DATA: "GSIRVHKSGKLSVKIGN [RPC53]"
  PROPERTY_LABEL: "protein stability index"
  ASSAY_VALUE: 1.69
- SEQUENCE_DATA: "ILGELKRVKSYMDKAKQ [LRP1]"
  PROPERTY_LABEL: "protein stability index"
  ASSAY_VALUE: 2.36
- SEQUENCE_DATA: "LMNGVKPFKSFLKKNII [FAS1]"
  PROPERTY_LABEL: "protein stability index"
  ASSAY_VALUE: 3.27
- SEQUENCE_DATA: "EYRDLYTNSVELRSLSK [YMR129W/POM152]"
  PROPERTY_LABEL: "protein stability index"
  ASSAY_VALUE: 2.79

Q: // query protein stability index value for entry KNLQRESCEDILDLKEF [RTT102]
Ans: 3.45

Q: Another sequence to look at: YYNEEGIHILLYSGLII [RPC82]
Ans: 2.28

Q: Another sequence to look at: HHFTCEITGTSCLTFFQ [ITC1]
Ans: 2.07

Q: Another sequence to look at: IPAGIYWYWWKNGNEYN [QCR8]
Ans: 2.04

Q: Another sequence to look at: EIEQNTELLDEFIAAVN [RPN10]
Ans: 3.16

Q: Another sequence to look at: TKGDSTPVQPDLSVTPQ [YAR002W/NUP60]
Ans: 3.1

Q: Another sequence to look at: SEKQNDEEAAGASTVMK [PRP8]
Ans: 3.43

Q: Another sequence to look at: RMAKYLNNTHVISSGPL [RPC53]
Ans: 2.47
